measuredTarget: T1, CD73 on the surface of human cells (human, UniProt P21589 27-549)
T1 construct: whole, on cells; The cell line of each value is named under assay or readout; also called CD73 on the surface of tumor cells; CD73 enzyme on the surface of MDA-MB-231 cells
T1 sequence (looked up): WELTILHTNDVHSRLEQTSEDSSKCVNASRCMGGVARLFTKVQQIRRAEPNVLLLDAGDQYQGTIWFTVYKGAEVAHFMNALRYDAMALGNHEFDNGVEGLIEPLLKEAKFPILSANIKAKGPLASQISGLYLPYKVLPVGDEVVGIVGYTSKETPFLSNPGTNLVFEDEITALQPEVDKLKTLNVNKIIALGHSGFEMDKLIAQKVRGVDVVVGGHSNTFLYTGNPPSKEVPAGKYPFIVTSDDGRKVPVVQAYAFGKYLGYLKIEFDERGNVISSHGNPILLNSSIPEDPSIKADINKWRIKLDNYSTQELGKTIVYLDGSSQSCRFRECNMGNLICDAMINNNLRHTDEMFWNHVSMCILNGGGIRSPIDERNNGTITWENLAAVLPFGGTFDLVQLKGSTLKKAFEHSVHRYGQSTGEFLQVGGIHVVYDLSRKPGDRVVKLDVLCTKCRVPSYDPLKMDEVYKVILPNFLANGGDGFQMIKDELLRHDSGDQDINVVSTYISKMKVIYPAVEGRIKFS
assayProcedure: flow cytometry on HCC44 cells
Protocol: 100 μL of the test antibodies diluted from 10 μg/mL to 0.016 μg/mL in a 5-fold gradient were used as the primary antibodies, and were mixed with 1×10⁵ tumor cells suspended in 100 μL RPMI-1640 serum-free medium to make a final concentration of 5 μg/mL diluted to 0.008 μg/mL, and then incubated at 4° C. for 1 h. […] The binding affinity of the test antibodies to CD73 on the surface of the corresponding cells was measured by flow cytometry.
readoutLabel: EC50 (µg/mL)

binder: chimeric nanobody 5-E11 (Fc fusion, Human-alpaca chimeric antibody (VHH on hIgG1 Fc); Only the VHH is tied to the tested molecule; also called original antibody 5-E11) VHH: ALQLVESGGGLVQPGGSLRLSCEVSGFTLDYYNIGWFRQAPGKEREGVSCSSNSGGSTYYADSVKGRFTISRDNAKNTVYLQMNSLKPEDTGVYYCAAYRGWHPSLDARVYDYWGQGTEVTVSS
observedResult: 0.096

binder: chimeric nanobody 4-D04 (Fc fusion, Human-alpaca chimeric antibody) VHH: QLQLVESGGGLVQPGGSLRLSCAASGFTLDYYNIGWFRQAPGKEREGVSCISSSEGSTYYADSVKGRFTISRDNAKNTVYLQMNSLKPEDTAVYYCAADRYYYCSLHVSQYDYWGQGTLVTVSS
observedResult: 0.114

binder: chimeric nanobody 4-B02 (Fc fusion, Human-alpaca chimeric antibody) VHH: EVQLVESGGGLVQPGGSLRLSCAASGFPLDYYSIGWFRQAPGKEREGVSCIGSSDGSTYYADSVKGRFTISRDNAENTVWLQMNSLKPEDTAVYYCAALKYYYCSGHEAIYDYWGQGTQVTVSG
observedResult: 0.105

binder: chimeric nanobody 3-D7 (Fc fusion, Human-alpaca chimeric antibody (VHH on hIgG1 Fc); Only the VHH is tied to the tested molecule; 37-39 exist for 3-D7-FC1/FC2/FC3; also called original antibody 3-D7) VHH: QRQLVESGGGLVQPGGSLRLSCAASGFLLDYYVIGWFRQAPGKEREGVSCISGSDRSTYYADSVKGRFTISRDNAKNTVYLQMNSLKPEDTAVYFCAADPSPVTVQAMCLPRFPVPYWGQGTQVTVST
observedResult: 0.234
